Sourced from patent US20180334496A1

# SUBJECT_OF_TEST: T1, human Complement Factor D (CFD), purified from human serum (human, UniProt P00746 26-253)
# T1 construct: serum purified (CompTech A136); also called serum purified CFD; hCFD-Comptech
# EXPERIMENTAL_PROTOCOL: SPR MX96, mAbs amine-coupled, CFD injected
// reported pKd for each item listed
Would you please state pKd, meaning minus log10 of the concentration in mol/L, as a bare number?

KCD017 (antibody, V domains shown) VH: DVQLQESGPDLVKPSQSLSLTCTVTDYSITSGYSWHWIRQFPGNKLEWLGYIHSSGNTNYNPSLKSRFSITRDTSKNQFFLQLNSVTSEDTATYYCALHYYGSSFGWYFDVWGAGTTVTVSS VL: DIVMTQSHKFMSTSVGDRVYITCKASQDVGTAVAWYQQTSGQSPKLLIYWASTRHTGVPDRFTGSGSGTDFTLTLSNVQSEDLADYFCQQYTSYPLTFGAGTKLELK: 8.11

From here, focus on the item given below.
Req: Which measured pKd value corresponds to KCD132 (antibody, V domains shown) VH: QVQLQQSGPELVKPGASVKISCKASGYSFTDYYINWVKQRPGQGLEWIGWIFPGSGSTYYNEKFKGKATLTVDKSSSTAYMLLSSLTSEDSAVYFCARTGYYSNLYAVDYWGQGTSVTVSS VL: DIQMTQSPASLSVSVGETVTITCRASENIYSNLAWYQQKQGKSPQLLVYVATNLADGVPSRFSGSGSGTQYSLKINSLQSEDFGNYYCQHFWGTPYTFGGGTKLEMR ?
Resp: 8.58
